- Measurement protocol: in vivo
- Experimental parameters: mouse, po
- Method: Each sample was dissolved in olive oil or dispersed in 1% Tween 20 aqueous solution.
Endpoint name: LD50 at 72 h (mg/kg)
Entry rule: numbers only, all in mg/kg.

Problem: I am curious: what LD50 at 72 h value has been reported for `CCc1ccc(C(=O)c2ccc(C)cc2)cc1` ?
Result: 3000

----------
Below, each entry is listed with its recorded Analgesic (percentage diminution of times of painful stretchings).
- System: painful stretchings induced by acetic acid
- Measurement protocol: acetic acid induced stretching (analgesic effect)
- Experimental parameters: 100 mg/kg oral, 0.7% acetic acid i.p., mice
Entry rule: numbers only, all in %.

Problem: // fetch painful stretchings induced by acetic acid Analgesic (percentage diminution of times of painful stretchings) for `CCCc1ccc(C(=O)c2ccccc2)cc1`
Result: 17.3

Problem: // fetch painful stretchings induced by acetic acid Analgesic (percentage diminution of times of painful stretchings) for `CCCCCc1ccc(C(=O)c2ccc(CCC)cc2)cc1`
Result: 15.5

Problem: // fetch painful stretchings induced by acetic acid Analgesic (percentage diminution of times of painful stretchings) for `CCCCCc1ccc(C(=O)c2ccc(O)cc2)cc1`
Result: 14.1

Problem: // fetch painful stretchings induced by acetic acid Analgesic (percentage diminution of times of painful stretchings) for `CCCCCCc1ccc(C(=O)C(=O)c2ccccc2)cc1`
Result: 20.5

New cases:
Problem: // fetch painful stretchings induced by acetic acid Analgesic (percentage diminution of times of painful stretchings) for `CCCCc1ccc(C(=O)c2ccc(OC)cc2)cc1`
Result: 20.1

Problem: // fetch painful stretchings induced by acetic acid Analgesic (percentage diminution of times of painful stretchings) for `CCCCc1ccc(C(=O)c2ccccc2)cc1`
Result: 30.1

----------
- Tested on: thrombosis
- Measurement protocol: inhibiting effect on thrombosis (arterio-venous by-pass, silk thread)
- Format: in vivo, SD type male rats
- Experimental parameters: 100 mg/kg oral, 5 hours before first circulation, rats
Threshold rule: Thrombosis inh. greater than or equal to 20% is rule met; below that, rule not met.

Below, 3 molecules whose answers are already recorded.
Problem: For this molecule, is measured Thrombosis inh. 20% or higher? O=C(Cc1ccccc1)c1ccccc1 [compound 47]
Result: rule not met

Problem: For this molecule, is measured Thrombosis inh. 20% or higher? `COc1ccc(C(=O)C(=O)c2ccccc2)cc1`
Result: rule not met

Problem: For this molecule, is measured Thrombosis inh. 20% or higher? O=C(C(=O)c1ccccc1)c1ccccc1 [compound 53]
Result: rule not met

Attention now turns to another entry.
Problem: For this molecule, is measured Thrombosis inh. 20% or higher? O=C(c1ccccc1)c1ccccc1 [compound 27]
Result: rule met

----------
- Tested on: thrombosis
- Measurement protocol: inhibiting effect on thrombosis (arterio-venous by-pass, silk thread)
- Assay type: in vivo, SD type male rats
- Experimental parameters: Rattus norvegicus; 100 mg/kg oral, 5 hours before first circulation, rats; read-out: Thrombosis inh.
- Experimental: Inhibiting effect on thrombosis: The inhibiting effects of the samples of the invention on thrombosis were tested by the following test method. […] The blood circulation was reestablished by opening the pinch cock. After 15 minutes, the wet weight of thrombus on the silk thread was similarly measured. In the same manner, the third circulation was performed and wet weight of thrombus measured. […]
Below, each entry is listed with its recorded inhibition in vivo at 100 mg/kg.
Entry rule: numbers only, all in %.

Problem: I am curious: what inhibition in vivo at 100 mg/kg value has been reported for `COc1ccc(C(=O)Cc2ccccc2)cc1` ?
Result: 6.5

Problem: I am curious: what inhibition in vivo at 100 mg/kg value has been reported for `CCCCCc1ccc(C(=O)c2ccc(C)cc2)cc1` ?
Result: 16

Problem: I am curious: what inhibition in vivo at 100 mg/kg value has been reported for `CC(C)c1ccc(C(=O)c2ccccc2)cc1` ?
Result: 5.4

Problem: I am curious: what inhibition in vivo at 100 mg/kg value has been reported for `CCCCCCc1ccc(C(=O)c2ccc(C)cc2C)cc1` ?
Result: 15.9

Problem: I am curious: what inhibition in vivo at 100 mg/kg value has been reported for `CCCc1ccc(C(=O)c2ccccc2)cc1` ?
Result: 4.1

Problem: I am curious: what inhibition in vivo at 100 mg/kg value has been reported for `CCCCc1ccc(C(=O)c2ccccc2F)cc1` ?
Result: 38

Problem: I am curious: what inhibition in vivo at 100 mg/kg value has been reported for `CCCCOc1ccc(C(=O)Cc2ccc(Cl)cc2)cc1` ?
Result: 8.5

Problem: I am curious: what inhibition in vivo at 100 mg/kg value has been reported for `O=C(c1ccccc1)c1ccc(C2CCCCC2)cc1` ?
Result: 28.8

Problem: I am curious: what inhibition in vivo at 100 mg/kg value has been reported for `CCCc1ccc(C(=O)c2ccc(Cl)cc2)cc1` ?
Result: 6.2

Problem: I am curious: what inhibition in vivo at 100 mg/kg value has been reported for `Cc1ccccc1C(=O)c1c(C)c(C)cc(C)c1C` ?
Result: 31

----------
- System: painful stretchings induced by acetic acid
- Measurement protocol: acetic acid induced stretching (analgesic effect)
- Experimental parameters: 100 mg/kg oral, 0.7% acetic acid i.p., mice
Below, each entry is listed with its recorded Analgesic (percentage diminution of times of painful stretchings).
Entry rule: numbers only, all in %.

Problem: I am curious: what Analgesic (percentage diminution of times of painful stretchings) value has been reported for O=C(c1ccc(F)cc1)c1ccc(F)cc1 [compound 114] ?
Result: 18.3

Problem: I am curious: what Analgesic (percentage diminution of times of painful stretchings) value has been reported for CCCCCCCCc1ccc(C(=O)c2ccccc2)cc1 [compound 26] ?
Result: 35.9

Problem: I am curious: what Analgesic (percentage diminution of times of painful stretchings) value has been reported for CCCCCc1ccc(C(=O)c2ccc(OC)cc2)cc1 [compound 45] ?
Result: 12.5

Problem: I am curious: what Analgesic (percentage diminution of times of painful stretchings) value has been reported for COc1ccc(C(=O)c2ccccc2)c(OC)c1 [compound 74] ?
Result: 24.2

New cases:
Problem: I am curious: what Analgesic (percentage diminution of times of painful stretchings) value has been reported for CC(C)c1ccc(C(=O)c2ccccc2)cc1 [compound 21] ?
Result: 16.1

Problem: I am curious: what Analgesic (percentage diminution of times of painful stretchings) value has been reported for CCCc1ccc(C(=O)Cc2ccccc2)cc1 [compound 49] ?
Result: 18.2

----------
- Measurement protocol: in vivo
- Experimental parameters: mouse, po
- Procedure: Each sample was dissolved in olive oil or dispersed in 1% Tween 20 aqueous solution.
Below, each entry is listed with its recorded LD50 at 72 h.
Entry rule: numbers only, all in mg/kg.

Problem: I am curious: what LD50 at 72 h value has been reported for `CCCCc1ccc(C(=O)c2ccccc2)cc1` ?
Result: 2400

Problem: I am curious: what LD50 at 72 h value has been reported for `Cc1ccc(C(=O)c2ccc(F)cc2)c(C)c1` ?
Result: 2000

Problem: I am curious: what LD50 at 72 h value has been reported for `CCCCCCCc1ccc(C(=O)c2ccccc2)cc1` ?
Result: 8000

Problem: I am curious: what LD50 at 72 h value has been reported for `Cc1cc(C)c(C(=O)c2ccc(Br)cc2)c(C)c1` ?
Result: 1500

Problem: I am curious: what LD50 at 72 h value has been reported for `Cc1cc(C)c(C(=O)c2ccccc2)cc1C` ?
Result: 2000

Problem: I am curious: what LD50 at 72 h value has been reported for `CCCCCc1ccc(C(=O)c2ccc(F)cc2)cc1` ?
Result: 4000

Problem: I am curious: what LD50 at 72 h value has been reported for `CCCc1ccc(C(=O)c2ccc(O)cc2)cc1` ?
Result: 3000

Problem: I am curious: what LD50 at 72 h value has been reported for `CCCCCc1ccc(C(=O)c2ccccc2Br)cc1` ?
Result: 1500

Problem: I am curious: what LD50 at 72 h value has been reported for `CCCCCCCCc1ccc(C(=O)c2cccc(Br)c2)cc1` ?
Result: 2000

Problem: I am curious: what LD50 at 72 h value has been reported for `CCCCc1ccc(C(=O)c2ccc(Cl)cc2)cc1` ?
Result: 3000

Problem: I am curious: what LD50 at 72 h value has been reported for `CCCc1ccc(C(=O)c2ccc(C)cc2)cc1` ?
Result: 5000

Problem: I am curious: what LD50 at 72 h value has been reported for `Cc1ccc(C)c(C(=O)c2ccccc2)c1` ?
Result: 1000

Problem: I am curious: what LD50 at 72 h value has been reported for `O=C(c1ccccc1)c1ccccc1F` ?
Result: 4000

Problem: I am curious: what LD50 at 72 h value has been reported for `Cc1ccc(C(=O)c2cccc(F)c2)c(C)c1` ?
Result: 1000

Problem: I am curious: what LD50 at 72 h value has been reported for `CCCCCc1ccc(C(=O)c2ccc(C)cc2)cc1` ?
Result: 10000

Problem: I am curious: what LD50 at 72 h value has been reported for `COc1ccc(OC)c(C(=O)c2ccccc2)c1` ?
Result: 5000

Problem: I am curious: what LD50 at 72 h value has been reported for `CCCCc1ccc(C(=O)c2ccc(F)cc2C)cc1` ?
Result: 2000

Problem: I am curious: what LD50 at 72 h value has been reported for `CC(C)c1ccc(C(=O)c2ccccc2)cc1` ?
Result: 2000
